# Tested on: Gastrin/cholecystokinin type B receptor (Cavia porcellus)
# Method notes: Inhibition of specific binding of [125I]BH-CCK-8 in guinea pig cortex
Where a SMILES comes first, the peptide text is derived from it. The star is where a group is joined. Quinoline3carbonyl = O=C(c1cnc2ccccc2c1)*; X19 = O=C(/C=C\c1ccccc1)*; Boc = CC(C)(C)OC(=O)*
Test readout: pIC50
Reminder that pIC50 is minus the log10 of a molar concentration.

Identify measured pIC50 associated with CC(C)(C)OC(=O)N[C@@H](Cc1c[nH]c2ccccc12)C(=O)N[C@@H](CCCCNC(=O)/C=C\c1ccccc1)C(=O)N[C@@H](CC(=O)O)C(=O)N[C@@H](Cc1ccccc1)C(N)=O (Boc-WK(X19)DF-NH2)
5.74

Identify measured pIC50 associated with CC(C)(C)OC(=O)N[C@@H](Cc1c[nH]c2ccccc12)C(=O)N[C@@H](CCCCNC(=O)c1cnc2ccccc2c1)C(=O)N[C@@H](CC(=O)O)C(=O)N[C@@H](Cc1ccccc1)C(N)=O (Boc-WK(Quinoline3carbonyl)DF-NH2)
6.70

----------
# Tested on: Gastrin/cholecystokinin type B receptor (Cavia porcellus)
# Method notes: Inhibition of specific binding of [125I]BH-CCK-8 in guinea pig cortex
Where a SMILES comes first, the peptide text is derived from it. [ ]: non-standard residue; d: D form. The star is where a group is joined. Acryloyl(3-(pyridin-3-yl)) = O=C(C=Cc1cccnc1)*; NMeF = CN[C@@H](Cc1ccccc1)C(=O)O; X30 = O=C(CCc1ccc(C(F)(F)F)cc1)*; Boc = CC(C)(C)OC(=O)*
Test readout: IC50 (µM)
Write the number in µM without appending the unit.

Identify measured IC50 associated with CC(C)(C)OC(=O)N[C@@H](Cc1c[nH]c2ccccc12)C(=O)N[C@@H](CCCCNC(=O)CCc1ccc(C(F)(F)F)cc1)C(=O)N[C@@H](CC(=O)O)C(=O)N[C@@H](Cc1ccccc1)C(N)=O (Boc-WK(X30)DF-NH2)
19

Identify measured IC50 associated with CN(C(=O)[C@H](CC(=O)O)NC(=O)[C@H](CCCCNC(=O)C=Cc1cccnc1)NC(=O)[C@H](Cc1c[nH]c2ccccc12)NC(=O)OC(C)(C)C)[C@@H](Cc1ccccc1)C(N)=O (Boc-WK(Acryloyl(3-(pyridin-3-yl)))D[NMeF]-NH2)
0.12

----------
# Tested on: Gastrin/cholecystokinin type B receptor (Cavia porcellus)
# Method notes: Inhibition of specific binding of [125I]BH-CCK-8 in guinea pig cortex
Where a SMILES comes first, the peptide text is derived from it. [ ]: non-standard residue; d: D form. The star is where a group is joined. 2Naphthoyl(6-OH) = O=C(c1ccc2cc(O)ccc2c1)*; NMeF = CN[C@@H](Cc1ccccc1)C(=O)O; X10 = O=C(/C=C\c1ccc(Cl)cc1Cl)*; X8 = COc1ccc2[nH]c(C(=O)*)cc2c1; X12 = O=C(c1cnc2cccc(O)c2c1)*; Boc = CC(C)(C)OC(=O)*
Test readout: pIC50
Reminder that pIC50 is minus the log10 of a molar concentration.

Identify measured pIC50 associated with CC(C)(C)OC(=O)N[C@@H](Cc1c[nH]c2ccccc12)C(=O)N[C@@H](CCCCNC(=O)/C=C\c1ccc(Cl)cc1Cl)C(=O)N[C@@H](CC(=O)O)C(=O)N[C@@H](Cc1ccccc1)C(N)=O (Boc-WK(X10)DF-NH2)
5.30

Identify measured pIC50 associated with CC(C)(C)OC(=O)N[C@@H](Cc1c[nH]c2ccccc12)C(=O)N[C@@H](CCCCNC(=O)c1cnc2cccc(O)c2c1)C(=O)N[C@@H](CC(=O)O)C(=O)N[C@@H](Cc1ccccc1)C(N)=O (Boc-WK(X12)DF-NH2)
6.17

Identify measured pIC50 associated with CN(C(=O)[C@H](CC(=O)O)NC(=O)[C@H](CCCCNC(=O)c1ccc2cc(O)ccc2c1)NC(=O)[C@H](Cc1c[nH]c2ccccc12)NC(=O)OC(C)(C)C)[C@@H](Cc1ccccc1)C(N)=O (Boc-WK(2Naphthoyl(6-OH))D[NMeF]-NH2)
6.14

Identify measured pIC50 associated with COc1ccc2[nH]c(C(=O)NCCCC[C@H](NC(=O)[C@H](Cc3c[nH]c4ccccc34)NC(=O)OC(C)(C)C)C(=O)N[C@@H](CC(=O)O)C(=O)N[C@@H](Cc3ccccc3)C(N)=O)cc2c1 (Boc-WK(X8)DF-NH2)
5.52

----------
# Tested on: Gastrin/cholecystokinin type B receptor (Cavia porcellus)
# Method notes: Inhibition of specific binding of [125I]BH-CCK-8 in guinea pig cortex
Where a SMILES comes first, the peptide text is derived from it. [ ]: non-standard residue; d: D form. The star is where a group is joined. X6 = O=C(/C=C\c1ccc([N+](=O)[O-])cc1)*; X36 = O=C(C=Cc1ccc(OS(=O)(=O)O)cc1)*; X15 = O=C(/C=C\c1ccc(C(F)(F)F)cc1)*; X20 = CC(=O)Oc1ccc2cc(C(=O)*)ccc2c1; NMeF = CN[C@@H](Cc1ccccc1)C(=O)O; X14 = O=C(c1cc2cc(O)ccc2[nH]1)*; X37 = O=C(C=Cc1c[nH]c2ccccc12)*; X21 = O=C(/C=C\c1ccc(Br)cc1)*; X11 = O=C(/C=C\c1ccc(O)cc1)*; X18 = O=C(c1cc2ccccc2[nH]1)*; Boc = CC(C)(C)OC(=O)*
So I've got a bunch of compounds here, and I need their pIC50 values.
Reminder that pIC50 is minus the log10 of a molar concentration.

Identify measured pIC50 associated with CC(=O)Oc1ccc2cc(C(=O)NCCCC[C@H](NC(=O)[C@H](Cc3c[nH]c4ccccc34)NC(=O)OC(C)(C)C)C(=O)N[C@@H](CC(=O)O)C(=O)N[C@@H](Cc3ccccc3)C(N)=O)ccc2c1 (Boc-WK(X20)DF-NH2)
5.85

Identify measured pIC50 associated with CC(C)(C)OC(=O)N[C@@H](Cc1c[nH]c2ccccc12)C(=O)N[C@@H](CCCCNC(=O)c1cc2cc(O)ccc2[nH]1)C(=O)N[C@@H](CC(=O)O)C(=O)N[C@@H](Cc1ccccc1)C(N)=O (Boc-WK(X14)DF-NH2)
6.08

Identify measured pIC50 associated with CC(C)(C)OC(=O)N[C@@H](Cc1c[nH]c2ccccc12)C(=O)N[C@@H](CCCCNC(=O)/C=C\c1ccc(O)cc1)C(=O)N[C@@H](CC(=O)O)C(=O)N[C@@H](Cc1ccccc1)C(N)=O (Boc-WK(X11)DF-NH2)
6.14

Identify measured pIC50 associated with CC(C)(C)OC(=O)N[C@@H](Cc1c[nH]c2ccccc12)C(=O)N[C@@H](CCCCNC(=O)c1cc2ccccc2[nH]1)C(=O)N[C@@H](CC(=O)O)C(=O)N[C@@H](Cc1ccccc1)C(N)=O (Boc-WK(X18)DF-NH2)
5.68

Identify measured pIC50 associated with CC(C)(C)OC(=O)N[C@@H](Cc1c[nH]c2ccccc12)C(=O)N[C@@H](CCCCNC(=O)C=Cc1c[nH]c2ccccc12)C(=O)N[C@@H](CC(=O)O)C(=O)N[C@@H](Cc1ccccc1)C(N)=O (Boc-WK(X37)DF-NH2)
5.33

Identify measured pIC50 associated with CC(C)(C)OC(=O)N[C@@H](Cc1c[nH]c2ccccc12)C(=O)N[C@@H](CCCCNC(=O)/C=C\c1ccc(C(F)(F)F)cc1)C(=O)N[C@@H](CC(=O)O)C(=O)N[C@@H](Cc1ccccc1)C(N)=O (Boc-WK(X15)DF-NH2)
5.28

Identify measured pIC50 associated with CN(C(=O)[C@H](CC(=O)O)NC(=O)[C@H](CCCCNC(=O)C=Cc1ccc(OS(=O)(=O)O)cc1)NC(=O)[C@H](Cc1c[nH]c2ccccc12)NC(=O)OC(C)(C)C)[C@@H](Cc1ccccc1)C(N)=O (Boc-WK(X36)D[NMeF]-NH2)
6.00

Identify measured pIC50 associated with CC(C)(C)OC(=O)N[C@@H](Cc1c[nH]c2ccccc12)C(=O)N[C@@H](CCCCNC(=O)/C=C\c1ccc(Br)cc1)C(=O)N[C@@H](CC(=O)O)C(=O)N[C@@H](Cc1ccccc1)C(N)=O (Boc-WK(X21)DF-NH2)
5.29

Identify measured pIC50 associated with CC(C)(C)OC(=O)N[C@@H](Cc1c[nH]c2ccccc12)C(=O)N[C@@H](CCCCNC(=O)/C=C\c1ccc([N+](=O)[O-])cc1)C(=O)N[C@@H](CC(=O)O)C(=O)N[C@@H](Cc1ccccc1)C(N)=O (Boc-WK(X6)DF-NH2)
5.36
